From: PubChem BioAssay AID328

- Test system: BDF1 mice, P388 leukemia ip, median survival T/C
- runDescription: NCI In Vivo Anticancer Drug Screen. Data for tumor model P388 Leukemia (intraperitoneal) in B6D2F1 (BDF1) mice
- cond: endpoint: median survival time; dose: 200.0 mg/kg/injection; schedule: Q04DX002 (ip); vehicle: saline with Tween-80; higher = longer survival
Inconclusive results and toxic doses are left out.

| molecule | experimentalTarget | T/C |
| --- | --- | --- |
| CCOP1(=S)OCC(C)O1 (centres undefined) | BDF1 mice, P388 leukemia ip, median survival T/C | 99 % of control |
| CCCc1c(N)c2ccccc2c2ccccc12 | BDF1 mice, P388 leukemia ip, median survival T/C | 96 % of control |
| COc1ccc(O)c(/C=C/c2cc[n+](C)cc2)c1 | BDF1 mice, P388 leukemia ip, median survival T/C | 97 % of control |
| Cc1cc(N(C)C)cc(C)c1/C=C\c1ccnc2ccccc12 | BDF1 mice, P388 leukemia ip, median survival T/C | 107 % of control |
